FYI, the data here is from the Immune Epitope Database (IEDB).

Target under test: HLA-A*03:01
Assay details: IEDB peptide-MHC binding, purified MHC/competitive/radioactivity; filed as Kd, often an IC50 or EC50 that approximates it; bounds were set here for any values at or beyond the usual limits of such assays
Protocol conditions: source organism: Dengue virus 1 Brazil/97-11/1997
Measurement type: Kd (nM)
Just the number in nM, nothing appended.

State its Kd on HLA-A*03:01: `GLLFRRLTSR` 170

* * *

Target under test: HLA-A*69:01
Assay details: IEDB peptide-MHC binding, purified MHC/competitive/fluorescence; filed as Kd, often an IC50 or EC50 that approximates it; bounds were set here for any values at or beyond the usual limits of such assays
Protocol conditions: source organism: Human immunodeficiency virus type 1 (Z-84 ISOLATE)
Measurement type: Kd

Reported Kd, sequence `YIKIFIMIV` : ____ ≥ 20 µM

* * *

Target under test: HLA-A*11:01
Assay details: IEDB peptide-MHC binding, purified MHC/direct/fluorescence; filed as Kd, often an IC50 or EC50 that approximates it; bounds were set here for any values at or beyond the usual limits of such assays
Protocol conditions: source organism: Influenza A virus (A/Hong Kong/507/97(H5N1))
Measurement type: Kd

Reported Kd, sequence `GTSKIKMKW` : ____ ≥ 20 µM

* * *

Target under test: HLA-C*14:02
Assay details: IEDB peptide-MHC binding, purified MHC/direct/fluorescence; filed as Kd, often an IC50 or EC50 that approximates it; bounds were set here for any values at or beyond the usual limits of such assays
Protocol conditions: source organism: Giardia lamblia ATCC 50803
Measurement type: Kd (nM)
Just the number in nM, nothing appended.

State its Kd on HLA-C*14:02: `YLYLRPYAL` 151

* * *

Target under test: HLA-A*02:03
Assay details: IEDB peptide-MHC binding, purified MHC/competitive/fluorescence; filed as Kd, often an IC50 or EC50 that approximates it; bounds were set here for any values at or beyond the usual limits of such assays
Protocol conditions: source organism: Cryptosporidium parvum Iowa II
pKd: −log10 of the molar value.
Measurement type: pKd

Reported pKd, sequence `KIFKVTGEF` : ____ ≤ 4.70

* * *

Target under test: HLA-A*29:02
Assay details: IEDB peptide-MHC binding, purified MHC/competitive/radioactivity; filed as Kd, often an IC50 or EC50 that approximates it; bounds were set here for any values at or beyond the usual limits of such assays
Protocol conditions: source organism: Mammarenavirus machupoense
Measurement type: pKd
Reminder that pKd is minus the log10 of a molar concentration.

Reported pKd, sequence `RCWLIRNGSY` : ____ 5.32

* * *

Target under test: HLA-B*40:01
Assay details: IEDB peptide-MHC binding, purified MHC/direct/fluorescence; filed as Kd, often an IC50 or EC50 that approximates it; bounds were set here for any values at or beyond the usual limits of such assays
Protocol conditions: source organism: Influenza A virus (A/Hong Kong/1131/1998(H1N1))
Measurement type: Kd (nM)
Just the number in nM, nothing appended.

Reported Kd, sequence `REKIDGVKL` : ____ 46.9

* * *

Target under test: HLA-A*02:01
Assay details: IEDB peptide-MHC binding, purified MHC/competitive/fluorescence; filed as Kd, often an IC50 or EC50 that approximates it; bounds were set here for any values at or beyond the usual limits of such assays
Protocol conditions: source organism: Reston ebolavirus
pKd: −log10 of the molar value.
Measurement type: pKd

Reported pKd, sequence `ITDEINQIK` : ____ ≤ 4.70
